Hello, the source for this data is ChEMBL document CHEMBL3232846, in case you need it.

molecular target: Acetylcholinesterase (Electrophorus electricus, UniProt O42275); test: Inhibition of electric eel AChE using acetylthiocholine iodide as substrate preincubated for 15 mins by spectrophotometer analysis
Sequence (O42275 whole entry): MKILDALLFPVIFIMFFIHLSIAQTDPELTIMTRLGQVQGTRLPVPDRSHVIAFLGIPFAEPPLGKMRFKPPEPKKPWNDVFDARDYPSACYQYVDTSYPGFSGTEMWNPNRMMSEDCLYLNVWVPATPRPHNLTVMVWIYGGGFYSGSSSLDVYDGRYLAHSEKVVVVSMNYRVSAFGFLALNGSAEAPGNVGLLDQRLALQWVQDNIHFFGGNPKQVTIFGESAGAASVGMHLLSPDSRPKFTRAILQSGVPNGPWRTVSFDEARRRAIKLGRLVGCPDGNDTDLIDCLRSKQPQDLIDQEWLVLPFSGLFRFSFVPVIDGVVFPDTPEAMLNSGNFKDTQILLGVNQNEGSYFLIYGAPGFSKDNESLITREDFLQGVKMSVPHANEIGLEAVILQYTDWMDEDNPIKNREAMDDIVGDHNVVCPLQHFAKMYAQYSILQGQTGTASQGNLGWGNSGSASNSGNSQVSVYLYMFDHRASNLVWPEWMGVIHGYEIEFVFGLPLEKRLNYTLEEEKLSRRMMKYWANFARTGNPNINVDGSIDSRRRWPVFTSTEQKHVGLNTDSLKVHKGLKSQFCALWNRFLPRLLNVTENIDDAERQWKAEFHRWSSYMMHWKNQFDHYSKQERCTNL
Would you mind telling me the reported IC50 of each entry?
State just the number; it will be interpreted in µM.

Please report the recorded IC50 for C=CC(=O)N1C/C(=C\c2ccccc2F)C(=O)C2(C1)C(c1ccccc1F)C(c1ccccc1)NC21C(=O)Nc2ccccc21 (racemic) . 2.27

Data request, read-out IC50, for C=CC(=O)N1C/C(=C\c2cccc3ccccc23)C(=O)C2(C1)C(c1cccc3ccccc13)C(c1ccccc1)NC21C(=O)Nc2ccccc21 (racemic) 2.07

Form field: reported IC50 of C=CC(=O)N1C/C(=C\c2ccccc2Cl)C(=O)C2(C1)C(c1ccccc1Cl)C(c1ccccc1)NC21C(=O)Nc2ccccc21 (racemic) 1.68

For C=CC(=O)N1C/C(=C\c2ccccc2C)C(=O)C2(C1)C(c1ccccc1C)C(c1ccccc1)NC21C(=O)Nc2ccccc21 (racemic) , what is its reported IC50? 10.2

May I ask what IC50 has been recorded for C=CC(=O)N1C/C(=C\c2ccc(Cl)cc2)C(=O)C2(C1)C(c1ccc(Cl)cc1)C(c1ccccc1)NC21C(=O)Nc2ccccc21 (racemic) ? 4.61

So what does the record say about IC50 for O=C(C1CC(c2ccccc2)NC12C(=O)Nc1ccccc12)N1C/C(=C\c2ccccc2F)C(=O)C2(C1)C(c1ccccc1F)C(c1ccccc1)NC21C(=O)Nc2ccccc21 (racemic) ? 7.45
